- Test system: Plasmodium berghei
- PROTOCOL NOTES: Screen against P. berghei liver stage (PbLuc), transformed with Luciferase, at 10uM
- Format: functional, HepG2
- CONDITION PARAMETERS: tested at 10 uM
The whole screen tested about 69,000 compounds, of which about 8,600 (12%) showed an effect of 50% or more. This excerpt belongs to a sample that is enriched for strong results.
Each item that follows carries a reported INHIBITION.
Number plus unit, in that order.

- COC(=O)CNC(=O)c1nc(Cl)sc1C(C)C: -17.6%
- CC(C(=O)N1CCCCC1)n1nc(-c2cccs2)cc(N)c1=O (stereo unspecified): 23%
- CCc1cccc(N2CCC(NC(=O)c3ccncc3)CC2)c1: 23.5%
- O=S(=O)(CCNC1CCc2ncnn2C1)c1ccccc1 (stereo unspecified): 20.6%
- c1cncc(CN2CCc3ncnc(C4CC4)c3CC2)c1: 6.72%

Attention now shifts to the item below.
Prompt: I am curious: what INHIBITION value has been reported for O=C(NCc1cccc(N2CC=CC2)c1)NC1CC1 ?
Response: -37.7%
